Assay Info: chemical genetic growth profiling, strain panel (AID 1159580);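 further: tested at 20 µM; growth read once vehicle control cultures reached saturation at 30 °C; 1 = growth at the plate median or of vehicle wells; lower values mean less growth of the strain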
Condition: S. cerevisiae deletion strains, growth OD, locus YBR171W, strain sec66, stronger effect = lower value
In all, about 5,500 compounds went through this assay and about 2,000 (36%) were called active. Roughly 18% stayed inconclusive and do not appear here. The list shows a part of the results.
Exam item: assign label 1 to entries whose normalized growth is below 1 and label 0 to entries at or above 1. Note that a value of exactly 1 receives label 0.

O=C(O)c1ccccc1
label 1
NC(=O)c1cccnc1
label 1
CC(C)=CCCC(C)[C@@H]1CC[C@]2(C)C3=C(CC[C@@]12C)C1(C)CC[C@H](O)C(C)(C)C1CC3 (stereo partly specified)
label 0

Lab note: next compound to report on.
Ask: Threshold test, normalized growth < 1: `O=C(NCO)c1cccnc1`
Reply: label 0
